Origin of the recorded values: ChEMBL document CHEMBL3808334

System: KM12
Assay: Growth inhibition of human KM12 cells assessed as cell growth at 10^-4 M incubated for 48 hrs by sulforhodamine B assay
Assay type: functional
Settings: KM12, 48 h, read-out: Activity
result type: growth at 100 µM (%)
Report only the number, with the unit % understood.

Study these solved cases before continuing.
c1ccc2[nH]c(-c3ccc(Nc4nc(N5CCCCC5)nc(N5CCOCC5)n4)cc3)nc2c1	-40
Fc1ccc(-c2nc(Nc3ccc(-c4nc5ccccc5[nH]4)cc3)nc(N3CCOCC3)n2)cc1	-37
Clc1ccc(-c2nc(Nc3ccc(-c4nc5ccccc5[nH]4)cc3)nc(N3CCOCC3)n2)cc1	-67

In the following, a different compound is considered.
In: Tell me the measured growth at 100 µM of "c1ccc(-c2nc(Nc3ccc(-c4nc5ccccc5[nH]4)cc3)nc(N3CCOCC3)n2)cc1" , please.
Out: -86
